System: human monoclonal antibody CRJB
Format: binding
Please provide measured Binding of CRJB to linear peptide (PEPSCAN-ELISA signal) for the entries that follow.
Please give only the number in your answer, with no unit.

Enter measured Binding of CRJB to linear peptide (PEPSCAN-ELISA signal), system human monoclonal antibody CRJB, for the sequence shown: `LVPGFGKAYTIFNKT`
112

Enter measured Binding of CRJB to linear peptide (PEPSCAN-ELISA signal), system human monoclonal antibody CRJB, for the sequence shown: `NGVFFNGIILGPDGN`
117

Enter measured Binding of CRJB to linear peptide (PEPSCAN-ELISA signal), system human monoclonal antibody CRJB, for the sequence shown: `SLKGACKLKLCGVLG`
111

Enter measured Binding of CRJB to linear peptide (PEPSCAN-ELISA signal), system human monoclonal antibody CRJB, for the sequence shown: `NLVVEDEGCTNLSGF`
119

Enter measured Binding of CRJB to linear peptide (PEPSCAN-ELISA signal), system human monoclonal antibody CRJB, for the sequence shown: `GPDGNVLIPEMQSSL`
154

Enter measured Binding of CRJB to linear peptide (PEPSCAN-ELISA signal), system human monoclonal antibody CRJB, for the sequence shown: `VRKREECLDALESIM`
181

Enter measured Binding of CRJB to linear peptide (PEPSCAN-ELISA signal), system human monoclonal antibody CRJB, for the sequence shown: `VTTTFKRKHFRPTPD`
105

Enter measured Binding of CRJB to linear peptide (PEPSCAN-ELISA signal), system human monoclonal antibody CRJB, for the sequence shown: `FNGIILGPDGNVLIP`
139

Enter measured Binding of CRJB to linear peptide (PEPSCAN-ELISA signal), system human monoclonal antibody CRJB, for the sequence shown: `NFVGYVTTTFKRKHF`
107

Enter measured Binding of CRJB to linear peptide (PEPSCAN-ELISA signal), system human monoclonal antibody CRJB, for the sequence shown: `PGFGKAYTIFNKTLM`
113

Enter measured Binding of CRJB to linear peptide (PEPSCAN-ELISA signal), system human monoclonal antibody CRJB, for the sequence shown: `PDQLVNLHDFRSDEI`
106

Enter measured Binding of CRJB to linear peptide (PEPSCAN-ELISA signal), system human monoclonal antibody CRJB, for the sequence shown: `LSCPNNLVVEDEGCT`
117

Enter measured Binding of CRJB to linear peptide (PEPSCAN-ELISA signal), system human monoclonal antibody CRJB, for the sequence shown: `VGYVTTTFKRKHFRP`
113

Enter measured Binding of CRJB to linear peptide (PEPSCAN-ELISA signal), system human monoclonal antibody CRJB, for the sequence shown: `EIEHLVVEELVRKRE`
113

Enter measured Binding of CRJB to linear peptide (PEPSCAN-ELISA signal), system human monoclonal antibody CRJB, for the sequence shown: `FRSDEIEHLVVEELV`
114

Enter measured Binding of CRJB to linear peptide (PEPSCAN-ELISA signal), system human monoclonal antibody CRJB, for the sequence shown: `IFTNSRGKRASKGSE`
125

Enter measured Binding of CRJB to linear peptide (PEPSCAN-ELISA signal), system human monoclonal antibody CRJB, for the sequence shown: `SGFSYMELKVGYILA`
132

Enter measured Binding of CRJB to linear peptide (PEPSCAN-ELISA signal), system human monoclonal antibody CRJB, for the sequence shown: `IISPSVADLDPYDRS`
125

Enter measured Binding of CRJB to linear peptide (PEPSCAN-ELISA signal), system human monoclonal antibody CRJB, for the sequence shown: `ALESIMTTKSVSFRR`
132

Enter measured Binding of CRJB to linear peptide (PEPSCAN-ELISA signal), system human monoclonal antibody CRJB, for the sequence shown: `SKGCLRVGGRCHPHV`
121

Enter measured Binding of CRJB to linear peptide (PEPSCAN-ELISA signal), system human monoclonal antibody CRJB, for the sequence shown: `GIILGPDGNVLIPEM`
132

Enter measured Binding of CRJB to linear peptide (PEPSCAN-ELISA signal), system human monoclonal antibody CRJB, for the sequence shown: `WLRTVKTTKESLVII`
104

Enter measured Binding of CRJB to linear peptide (PEPSCAN-ELISA signal), system human monoclonal antibody CRJB, for the sequence shown: `LHSRVFPSGKCSGVA`
114

Enter measured Binding of CRJB to linear peptide (PEPSCAN-ELISA signal), system human monoclonal antibody CRJB, for the sequence shown: `CGVLGLRLMDGTWVA`
117

Enter measured Binding of CRJB to linear peptide (PEPSCAN-ELISA signal), system human monoclonal antibody CRJB, for the sequence shown: `SVSFRRLSHLRKLVP`
123

Enter measured Binding of CRJB to linear peptide (PEPSCAN-ELISA signal), system human monoclonal antibody CRJB, for the sequence shown: `GACKLKLCGVLGLRL`
134

Enter measured Binding of CRJB to linear peptide (PEPSCAN-ELISA signal), system human monoclonal antibody CRJB, for the sequence shown: `ENPRLGMSCDIFTNS`
118

Enter measured Binding of CRJB to linear peptide (PEPSCAN-ELISA signal), system human monoclonal antibody CRJB, for the sequence shown: `PYDRSLHSRVFPSGK`
120

Enter measured Binding of CRJB to linear peptide (PEPSCAN-ELISA signal), system human monoclonal antibody CRJB, for the sequence shown: `GNVLIPEMQSSLLQQ`
120

Enter measured Binding of CRJB to linear peptide (PEPSCAN-ELISA signal), system human monoclonal antibody CRJB, for the sequence shown: `GFVDERGLYKSLKGA`
120

Enter measured Binding of CRJB to linear peptide (PEPSCAN-ELISA signal), system human monoclonal antibody CRJB, for the sequence shown: `RLGMSCDIFTNSRGK`
106

Enter measured Binding of CRJB to linear peptide (PEPSCAN-ELISA signal), system human monoclonal antibody CRJB, for the sequence shown: `SLLQQHMELLESSVI`
163

Enter measured Binding of CRJB to linear peptide (PEPSCAN-ELISA signal), system human monoclonal antibody CRJB, for the sequence shown: `YTIFNKTLMEADAHY`
147

Enter measured Binding of CRJB to linear peptide (PEPSCAN-ELISA signal), system human monoclonal antibody CRJB, for the sequence shown: `LVRKREECLDALESI`
130

Enter measured Binding of CRJB to linear peptide (PEPSCAN-ELISA signal), system human monoclonal antibody CRJB, for the sequence shown: `VLIPEMQSSLLQQHM`
104

Enter measured Binding of CRJB to linear peptide (PEPSCAN-ELISA signal), system human monoclonal antibody CRJB, for the sequence shown: `CHPHVNGVFFNGIIL`
150

Enter measured Binding of CRJB to linear peptide (PEPSCAN-ELISA signal), system human monoclonal antibody CRJB, for the sequence shown: `GCLRVGGRCHPHVNG`
125

Enter measured Binding of CRJB to linear peptide (PEPSCAN-ELISA signal), system human monoclonal antibody CRJB, for the sequence shown: `SGVAVSSTYCSTNHD`
110

Enter measured Binding of CRJB to linear peptide (PEPSCAN-ELISA signal), system human monoclonal antibody CRJB, for the sequence shown: `VFPSGKCSGVAVSST`
114

Enter measured Binding of CRJB to linear peptide (PEPSCAN-ELISA signal), system human monoclonal antibody CRJB, for the sequence shown: `GTWVAMQTSNETKWC`
113

Enter measured Binding of CRJB to linear peptide (PEPSCAN-ELISA signal), system human monoclonal antibody CRJB, for the sequence shown: `RPTPDACRAAYNWKM`
101

Enter measured Binding of CRJB to linear peptide (PEPSCAN-ELISA signal), system human monoclonal antibody CRJB, for the sequence shown: `KSLKGACKLKLCGVL`
113

Enter measured Binding of CRJB to linear peptide (PEPSCAN-ELISA signal), system human monoclonal antibody CRJB, for the sequence shown: `SKGSETCGFVDERGL`
102

Enter measured Binding of CRJB to linear peptide (PEPSCAN-ELISA signal), system human monoclonal antibody CRJB, for the sequence shown: `CPNNLVVEDEGCTNL`
97

Enter measured Binding of CRJB to linear peptide (PEPSCAN-ELISA signal), system human monoclonal antibody CRJB, for the sequence shown: `LGPWSPIDIHHLSCP`
112

Enter measured Binding of CRJB to linear peptide (PEPSCAN-ELISA signal), system human monoclonal antibody CRJB, for the sequence shown: `VVEELVRKREECLDA`
108

Enter measured Binding of CRJB to linear peptide (PEPSCAN-ELISA signal), system human monoclonal antibody CRJB, for the sequence shown: `IDIHHLSCPNNLVVE`
102

Enter measured Binding of CRJB to linear peptide (PEPSCAN-ELISA signal), system human monoclonal antibody CRJB, for the sequence shown: `FRPTPDACRAAYNWK`
112

Enter measured Binding of CRJB to linear peptide (PEPSCAN-ELISA signal), system human monoclonal antibody CRJB, for the sequence shown: `DAHYKSVRTWNEILP`
121

Enter measured Binding of CRJB to linear peptide (PEPSCAN-ELISA signal), system human monoclonal antibody CRJB, for the sequence shown: `LSGFSYMELKVGYIL`
132

Enter measured Binding of CRJB to linear peptide (PEPSCAN-ELISA signal), system human monoclonal antibody CRJB, for the sequence shown: `LESSVIPLVHPLADP`
128

Enter measured Binding of CRJB to linear peptide (PEPSCAN-ELISA signal), system human monoclonal antibody CRJB, for the sequence shown: `LKGACKLKLCGVLGL`
90

Enter measured Binding of CRJB to linear peptide (PEPSCAN-ELISA signal), system human monoclonal antibody CRJB, for the sequence shown: `PLVHPLADPSTVFKD`
112

Enter measured Binding of CRJB to linear peptide (PEPSCAN-ELISA signal), system human monoclonal antibody CRJB, for the sequence shown: `PIDIHHLSCPNNLVV`
93

Enter measured Binding of CRJB to linear peptide (PEPSCAN-ELISA signal), system human monoclonal antibody CRJB, for the sequence shown: `AYNWKMAGDPRYEES`
94

Enter measured Binding of CRJB to linear peptide (PEPSCAN-ELISA signal), system human monoclonal antibody CRJB, for the sequence shown: `LLQQHMELLESSVIP`
111

Enter measured Binding of CRJB to linear peptide (PEPSCAN-ELISA signal), system human monoclonal antibody CRJB, for the sequence shown: `HVNGVFFNGIILGPD`
123

Enter measured Binding of CRJB to linear peptide (PEPSCAN-ELISA signal), system human monoclonal antibody CRJB, for the sequence shown: `KTTKESLVIISPSVA`
112

Enter measured Binding of CRJB to linear peptide (PEPSCAN-ELISA signal), system human monoclonal antibody CRJB, for the sequence shown: `KSVSFRRLSHLRKLV`
124

Enter measured Binding of CRJB to linear peptide (PEPSCAN-ELISA signal), system human monoclonal antibody CRJB, for the sequence shown: `LKVGYILAIKMNGFT`
112

Enter measured Binding of CRJB to linear peptide (PEPSCAN-ELISA signal), system human monoclonal antibody CRJB, for the sequence shown: `RTWNEILPSKGCLRV`
127

Enter measured Binding of CRJB to linear peptide (PEPSCAN-ELISA signal), system human monoclonal antibody CRJB, for the sequence shown: `TNFVGYVTTTFKRKH`
125

Enter measured Binding of CRJB to linear peptide (PEPSCAN-ELISA signal), system human monoclonal antibody CRJB, for the sequence shown: `MDGTWVAMQTSNETK`
97

Enter measured Binding of CRJB to linear peptide (PEPSCAN-ELISA signal), system human monoclonal antibody CRJB, for the sequence shown: `IFNKTLMEADAHYKS`
118

Enter measured Binding of CRJB to linear peptide (PEPSCAN-ELISA signal), system human monoclonal antibody CRJB, for the sequence shown: `VKTTKESLVIISPSV`
120

Enter measured Binding of CRJB to linear peptide (PEPSCAN-ELISA signal), system human monoclonal antibody CRJB, for the sequence shown: `KWCPPDQLVNLHDFR`
113

Enter measured Binding of CRJB to linear peptide (PEPSCAN-ELISA signal), system human monoclonal antibody CRJB, for the sequence shown: `FNKTLMEADAHYKSV`
141

Enter measured Binding of CRJB to linear peptide (PEPSCAN-ELISA signal), system human monoclonal antibody CRJB, for the sequence shown: `LVVEDEGCTNLSGFS`
103

Enter measured Binding of CRJB to linear peptide (PEPSCAN-ELISA signal), system human monoclonal antibody CRJB, for the sequence shown: `ERGLYKSLKGACKLK`
118

Enter measured Binding of CRJB to linear peptide (PEPSCAN-ELISA signal), system human monoclonal antibody CRJB, for the sequence shown: `YNWKMAGDPRYEESL`
118

Enter measured Binding of CRJB to linear peptide (PEPSCAN-ELISA signal), system human monoclonal antibody CRJB, for the sequence shown: `YVTTTFKRKHFRPTP`
106

Enter measured Binding of CRJB to linear peptide (PEPSCAN-ELISA signal), system human monoclonal antibody CRJB, for the sequence shown: `SCPNNLVVEDEGCTN`
114

Enter measured Binding of CRJB to linear peptide (PEPSCAN-ELISA signal), system human monoclonal antibody CRJB, for the sequence shown: `RRLSHLRKLVPGFGK`
143

Enter measured Binding of CRJB to linear peptide (PEPSCAN-ELISA signal), system human monoclonal antibody CRJB, for the sequence shown: `TCTGVVTEAENYTNF`
112

Enter measured Binding of CRJB to linear peptide (PEPSCAN-ELISA signal), system human monoclonal antibody CRJB, for the sequence shown: `TYCSTNHDYTIWMPE`
107
